B1: Pre-mRNA-processing factor 40 homolog B, residues 274 to 332; numbered along this chain, Q6NWY9 (parent)
chain: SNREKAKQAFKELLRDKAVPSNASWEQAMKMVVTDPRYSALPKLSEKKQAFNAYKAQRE

# Variants of: B1
# run_description: abundance fitness (aPCA) (normalised: wild type 0, dead -1); higher = more abundant; growth selection in yeast, the domain comes from the species named
# experimental_conditions: Homo sapiens
observable: abundance fitness
// print number alone

Completed entries (count: 6):
T34G : 0.108
L13R : -0.491
P36F : -0.307
S1L : 0.045
D35G : -0.742
E46P : -0.817

q: Request the reported abundance fitness associated with `E46G`
a: -0.694

q: Request the reported abundance fitness associated with `S45Q`
a: -0.15

q: Request the reported abundance fitness associated with `D35A`
a: -0.701

q: Request the reported abundance fitness associated with `L41W`
a: -0.486

q: Request the reported abundance fitness associated with `E4V`
a: -1.08

q: Request the reported abundance fitness associated with `N2Y`
a: -1.01

q: Request the reported abundance fitness associated with `Q49Y`
a: -0.544

q: Request the reported abundance fitness associated with `K55M`
a: -0.356

q: Request the reported abundance fitness associated with `P36E`
a: -0.103

q: Request the reported abundance fitness associated with `A6V`
a: -0.331
